Please consider the recorded pKi for S1P1 (Homo sapiens (Human), UniProt P21453) in what follows.
pKi: −log10 of the molar value.

[
  {
    "Molecule": "COc1ccc(F)cc1-c1noc(-c2ccc(-c3ccccc3C)c(CO)c2)n1",
    "pKi": 7.28
  },
  {
    "Molecule": "COc1ccccc1-c1noc(-c2ccc(N3CCOCC3)c(C(F)(F)F)c2)n1",
    "pKi": 8.15
  },
  {
    "Molecule": "FC(F)(F)Oc1ccccc1-c1noc(-c2ccc(N3CCCCC3)c(C(F)(F)F)c2)n1",
    "pKi": 7.27
  },
  {
    "Molecule": "Cc1cscc1-c1ccc(-c2nc(-c3ccccc3OC(F)(F)F)no2)cc1C(F)(F)F",
    "pKi": 8.40
  },
  {
    "Molecule": "COc1ccccc1-c1noc(-c2ccc(-c3cscc3C)c(C)c2)n1",
    "pKi": 8.52
  },
  {
    "Molecule": "COc1ccc(F)cc1-c1noc(-c2ccc(N3CCCCC3C)c(NS(C)(=O)=O)c2)n1 (centres unmarked)",
    "pKi": 7.34
  },
  {
    "Molecule": "COc1ccccc1-c1noc(-c2ccc(N3CCCCC3)cc2)n1",
    "pKi": 5.97
  },
  {
    "Molecule": "COc1ccc(F)cc1-c1noc(-c2ccc(N3CCCCC3)c(C(F)(F)F)c2)n1",
    "pKi": 9.00
  },
  {
    "Molecule": "Cc1ccccc1-c1ccc(-c2nc(-c3ccccc3OC(F)(F)F)no2)cc1C(F)(F)F",
    "pKi": 8.10
  },
  {
    "Molecule": "COc1ccccc1-c1noc(-c2ccc(N3CCOCC3)c([N+](=O)[O-])c2)n1",
    "pKi": 7.74
  },
  {
    "Molecule": "COc1ccccc1-c1noc(-c2ccc(-c3cscc3C)c(OC)c2)n1",
    "pKi": 8.40
  },
  {
    "Molecule": "COc1ccccc1-c1noc(-c2ccc(N3CCCCC3)c([N+](=O)[O-])c2)n1",
    "pKi": 7.96
  },
  {
    "Molecule": "COc1ccc(F)cc1-c1noc(-c2ccc(-c3ccccc3C)c(C)c2)n1",
    "pKi": 7.37
  },
  {
    "Molecule": "COc1ccccc1-c1noc(-c2ccc(C3CCCCC3)cc2)n1",
    "pKi": 7.70
  },
  {
    "Molecule": "COc1ccc(F)cc1-c1noc(-c2cnc(N3CCCCC3C)c(C)c2)n1 (centres unmarked)",
    "pKi": 8.22
  },
  {
    "Molecule": "COc1ccc(F)cc1-c1noc(-c2ccc(N3CCCCC3C)c(C#N)c2)n1 (centres unmarked)",
    "pKi": 8.40
  },
  {
    "Molecule": "FC(F)(F)Oc1ccccc1-c1noc(-c2ccc(C3CCCCC3)cc2)n1",
    "pKi": 7.60
  }
]

====

Experimental target: S1P3 (Homo sapiens (Human))
Assay: 35S-GTPγS binding, membranes from CHO cells expressing S1P3
Assay conditions: 60 min 30° C., read-out: S1P3 GTPgs EC50
pEC50: −log10 of the molar value.
Examples of compounds with documented pEC50 follow.

[
  {
    "Compound": "COc1ccc(F)cc1-c1noc(-c2ccc(N3CCCCC3C)c(N)c2)n1 (stereo not shown)",
    "Readout qualifier": "=",
    "pEC50": 6.57
  },
  {
    "Compound": "COc1ccccc1-c1noc(-c2ccc(N3CCCCC3C)c([N+](=O)[O-])c2)n1 (stereo not shown)",
    "Readout qualifier": "=",
    "pEC50": 5.27
  },
  {
    "Compound": "COc1ccccc1-c1ccc(-c2nc(-c3ccccc3OC(F)(F)F)no2)cc1C",
    "Readout qualifier": "<",
    "pEC50": 4.70
  },
  {
    "Compound": "COc1ccccc1-c1noc(-c2ccc(-c3cscc3C)c(C)c2)n1",
    "Readout qualifier": "=",
    "pEC50": 5.26
  }
]

====

Experimental target: UniProt:Q99500
Assay: 35S-GTPγS binding, membranes from CHO cells expressing S1P3
Assay conditions: 60 min 30° C., read-out: S1P3 GTPgs EC50
Measured parameter: EC50

[
  {
    "Compound": "COc1cc(-c2nc(-c3ccccc3OC(F)(F)F)no2)ccc1-c1ccccc1C",
    "Result value": "> 20 µM"
  },
  {
    "Compound": "CC1CCCCN1c1ccc(-c2nc(-c3ccccc3OC(F)(F)F)no2)cc1[N+](=O)[O-] (stereo not drawn)",
    "Result value": "> 30 µM"
  },
  {
    "Compound": "COc1ccccc1-c1noc(-c2ccc(CC(C)C)cc2)n1",
    "Result value": "> 30 µM"
  },
  {
    "Compound": "COc1cc(-c2nc(-c3ccccc3OC(F)(F)F)no2)ccc1-c1cscc1C",
    "Result value": "> 30 µM"
  },
  {
    "Compound": "COc1ccc(F)cc1-c1noc(-c2ccc(N3CCCCC3C)c(C(F)(F)F)c2)n1 (stereo not drawn)",
    "Result value": "0.125 µM"
  },
  {
    "Compound": "COc1ccc(F)cc1-c1noc(-c2ccc(N3CCCCC3)c(C(F)(F)F)c2)n1",
    "Result value": "0.617 µM"
  }
]

====

Experimental target: S1P3 (Homo sapiens (Human), UniProt Q99500)
Sequence (Q99500 whole entry, species assumed): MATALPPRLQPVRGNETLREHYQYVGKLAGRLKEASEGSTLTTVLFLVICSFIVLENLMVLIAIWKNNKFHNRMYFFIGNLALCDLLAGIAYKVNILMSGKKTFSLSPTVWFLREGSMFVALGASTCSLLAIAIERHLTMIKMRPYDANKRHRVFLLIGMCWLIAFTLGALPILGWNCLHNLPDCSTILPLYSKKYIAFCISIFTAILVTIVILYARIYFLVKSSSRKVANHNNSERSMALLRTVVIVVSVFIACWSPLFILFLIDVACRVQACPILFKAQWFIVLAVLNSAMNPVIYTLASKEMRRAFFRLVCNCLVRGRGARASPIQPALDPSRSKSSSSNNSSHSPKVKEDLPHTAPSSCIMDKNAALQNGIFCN
Assay: 35S-GTPγS binding, membranes from CHO cells expressing S1P3
Assay conditions: 60 min 30° C., read-out: S1P3 GTPgs EC50
pEC50: −log10 of the molar value.
Measured parameter: pEC50

[
  {
    "Compound": "Cc1ccccc1-c1ccc(-c2nc(-c3ccccc3OC(F)(F)F)no2)cc1C",
    "Measured parameter": "pEC50",
    "Result value": "< 4.52"
  },
  {
    "Compound": "CCOc1ccccc1-c1noc(-c2ccc(-c3ccccc3C)c(C)c2)n1",
    "Measured parameter": "pEC50",
    "Result value": "< 4.52"
  },
  {
    "Compound": "COc1ccccc1-c1noc(-c2ccc(N3CCCC(F)(F)C3)c([N+](=O)[O-])c2)n1",
    "Measured parameter": "pEC50",
    "Result value": "< 4.52"
  },
  {
    "Compound": "COc1ccccc1-c1noc(-c2ccc(-c3ccccc3C)c(C)c2)n1",
    "Measured parameter": "pEC50",
    "Result value": 5.49
  },
  {
    "Compound": "COc1ccccc1-c1noc(-c2ccc(N3CCCCC3C)c(C(F)(F)F)c2)n1 (centres unmarked)",
    "Measured parameter": "pEC50",
    "Result value": 6.19
  },
  {
    "Compound": "Cc1cc(-c2nc(-c3ccccc3OC(F)(F)F)no2)ccc1-c1cscc1C",
    "Measured parameter": "pEC50",
    "Result value": "< 4.70"
  },
  {
    "Compound": "COc1ccccc1-c1noc(-c2ccc(C3CCCCC3)cc2)n1",
    "Measured parameter": "pEC50",
    "Result value": "< 4.52"
  },
  {
    "Compound": "Cc1ccccc1-c1ccc(-c2nc(-c3ccccc3OC(F)(F)F)no2)cc1[N+](=O)[O-]",
    "Measured parameter": "pEC50",
    "Result value": 5.68
  }
]
